Measured TGI, listed per entry.
# System: MDA-MB-231 breast
# ASSAY NAME: NCI tumour cell line growth inhibition, 48 h
PROPERTY: TGI (µM)

- COMPOUND: "Cc1ccc2c3c1O[C@H]1c4[nH]c5ccccc5c4C[C@@]4(O)[C@@H](C2)N(CC2CC2)CC[C@]314"
  EXPERIMENTAL SYSTEM: "MDA-MB-231 breast"
  READOUT QUALIFIER: "="
  TEST VALUE: 35.6
- COMPOUND: "CCOC(=O)C1C(=O)CC1(C)C (stereo unspecified)"
  EXPERIMENTAL SYSTEM: "MDA-MB-231 breast"
  READOUT QUALIFIER: ">"
  TEST VALUE: 10
- COMPOUND: "CCC(=O)Oc1ccc2c(c1)c(=O)c1c(NCCCN(C)C)ccc3nnn2c31"
  EXPERIMENTAL SYSTEM: "MDA-MB-231 breast"
  READOUT QUALIFIER: "="
  TEST VALUE: 19.1
- COMPOUND: "COc1ccc(C[N+](C)(C)N)cc1OC"
  EXPERIMENTAL SYSTEM: "MDA-MB-231 breast"
  READOUT QUALIFIER: ">"
  TEST VALUE: 100
- COMPOUND: "C/C(=N\\Nc1ccc(Cl)cn1)c1ccc2ccccc2n1"
  EXPERIMENTAL SYSTEM: "MDA-MB-231 breast"
  READOUT QUALIFIER: ">"
  TEST VALUE: 100
- COMPOUND: "COC(=O)Nc1nc2ccc(C3(c4ccc(F)cc4)OCCO3)cc2[nH]1"
  EXPERIMENTAL SYSTEM: "MDA-MB-231 breast"
  READOUT QUALIFIER: "="
  TEST VALUE: 99.5

====

# System: RPMI-8226 leukemia
# ASSAY NAME: NCI tumour cell line growth inhibition, 48 h; in the data active means GI50 below about 0.43 µM; inactive means the rest
Labels: active, inactive

- COMPOUND SMILES: "COc1ccc2[nH]c3c4[nH]c5ccc(OC)cc5c4c4c(c3c2c1)C(=O)NC4=O"
  GROUP LABEL: "inactive"
- COMPOUND SMILES: "O=C(Nc1n[nH]c2cc(-c3ccccc3)ccc12)C1CC1"
  GROUP LABEL: "inactive"
- COMPOUND SMILES: "CCOC(=O)C1CCN(S(=O)(=O)/N=C2/NC(=O)NC2=C(Cl)Cl)CC1"
  GROUP LABEL: "active"

====

# Test system: SW-620 colon
# ASSAY NAME: NCI tumour cell line growth inhibition, 48 h
PROPERTY: TGI (µM)

- MOLECULE: "COc1ccc(C[N+](C)(C)N)cc1OC"
  PROPERTY: "TGI"
  UNIT SYMBOL: "µM"
  READOUT QUALIFIER: ">"
  TEST VALUE: 100
- MOLECULE: "Nc1nc(-c2ccccc2)cc(-c2ccc(OCc3ccccc3)cc2O)n1"
  PROPERTY: "TGI"
  UNIT SYMBOL: "µM"
  READOUT QUALIFIER: ">"
  TEST VALUE: 100
- MOLECULE: "COC1=C(OC)C(=O)C(Cc2c(C)nc3sccn23)=C(C)C1=O"
  PROPERTY: "TGI"
  UNIT SYMBOL: "µM"
  READOUT QUALIFIER: "="
  TEST VALUE: 34.8
- MOLECULE: "COc1ccc(CN2CC(C)(C)C2=O)c(OC)c1"
  PROPERTY: "TGI"
  UNIT SYMBOL: "µM"
  READOUT QUALIFIER: ">"
  TEST VALUE: 100
- MOLECULE: "COC(=O)[C@@]12C(=O)C=CC(=O)C1C1C(=CC2C)OC2OC3(CCCCC3)OC21 (stereo partly specified)"
  PROPERTY: "TGI"
  UNIT SYMBOL: "µM"
  READOUT QUALIFIER: "="
  TEST VALUE: 37.4
- MOLECULE: "CCC(=O)Oc1ccc2c(c1)c(=O)c1c(NCCCN(C)C)ccc3nnn2c31"
  PROPERTY: "TGI"
  UNIT SYMBOL: "µM"
  READOUT QUALIFIER: "="
  TEST VALUE: 13.5
